Exercise: for every item that follows, state its recorded IC50.
target: Fatty acid synthase (Homo sapiens); assay: inhibition of human FAS-TE enzyme activity – biochemical, endpoint fluorescence intensity, uHTS hits, dose response (AID 624327); type: functional;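 also: fluorescence from hydrolysis of an O-methyl fluorescein acyl ester substrate by the enzyme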
Sequence (P49327 whole entry): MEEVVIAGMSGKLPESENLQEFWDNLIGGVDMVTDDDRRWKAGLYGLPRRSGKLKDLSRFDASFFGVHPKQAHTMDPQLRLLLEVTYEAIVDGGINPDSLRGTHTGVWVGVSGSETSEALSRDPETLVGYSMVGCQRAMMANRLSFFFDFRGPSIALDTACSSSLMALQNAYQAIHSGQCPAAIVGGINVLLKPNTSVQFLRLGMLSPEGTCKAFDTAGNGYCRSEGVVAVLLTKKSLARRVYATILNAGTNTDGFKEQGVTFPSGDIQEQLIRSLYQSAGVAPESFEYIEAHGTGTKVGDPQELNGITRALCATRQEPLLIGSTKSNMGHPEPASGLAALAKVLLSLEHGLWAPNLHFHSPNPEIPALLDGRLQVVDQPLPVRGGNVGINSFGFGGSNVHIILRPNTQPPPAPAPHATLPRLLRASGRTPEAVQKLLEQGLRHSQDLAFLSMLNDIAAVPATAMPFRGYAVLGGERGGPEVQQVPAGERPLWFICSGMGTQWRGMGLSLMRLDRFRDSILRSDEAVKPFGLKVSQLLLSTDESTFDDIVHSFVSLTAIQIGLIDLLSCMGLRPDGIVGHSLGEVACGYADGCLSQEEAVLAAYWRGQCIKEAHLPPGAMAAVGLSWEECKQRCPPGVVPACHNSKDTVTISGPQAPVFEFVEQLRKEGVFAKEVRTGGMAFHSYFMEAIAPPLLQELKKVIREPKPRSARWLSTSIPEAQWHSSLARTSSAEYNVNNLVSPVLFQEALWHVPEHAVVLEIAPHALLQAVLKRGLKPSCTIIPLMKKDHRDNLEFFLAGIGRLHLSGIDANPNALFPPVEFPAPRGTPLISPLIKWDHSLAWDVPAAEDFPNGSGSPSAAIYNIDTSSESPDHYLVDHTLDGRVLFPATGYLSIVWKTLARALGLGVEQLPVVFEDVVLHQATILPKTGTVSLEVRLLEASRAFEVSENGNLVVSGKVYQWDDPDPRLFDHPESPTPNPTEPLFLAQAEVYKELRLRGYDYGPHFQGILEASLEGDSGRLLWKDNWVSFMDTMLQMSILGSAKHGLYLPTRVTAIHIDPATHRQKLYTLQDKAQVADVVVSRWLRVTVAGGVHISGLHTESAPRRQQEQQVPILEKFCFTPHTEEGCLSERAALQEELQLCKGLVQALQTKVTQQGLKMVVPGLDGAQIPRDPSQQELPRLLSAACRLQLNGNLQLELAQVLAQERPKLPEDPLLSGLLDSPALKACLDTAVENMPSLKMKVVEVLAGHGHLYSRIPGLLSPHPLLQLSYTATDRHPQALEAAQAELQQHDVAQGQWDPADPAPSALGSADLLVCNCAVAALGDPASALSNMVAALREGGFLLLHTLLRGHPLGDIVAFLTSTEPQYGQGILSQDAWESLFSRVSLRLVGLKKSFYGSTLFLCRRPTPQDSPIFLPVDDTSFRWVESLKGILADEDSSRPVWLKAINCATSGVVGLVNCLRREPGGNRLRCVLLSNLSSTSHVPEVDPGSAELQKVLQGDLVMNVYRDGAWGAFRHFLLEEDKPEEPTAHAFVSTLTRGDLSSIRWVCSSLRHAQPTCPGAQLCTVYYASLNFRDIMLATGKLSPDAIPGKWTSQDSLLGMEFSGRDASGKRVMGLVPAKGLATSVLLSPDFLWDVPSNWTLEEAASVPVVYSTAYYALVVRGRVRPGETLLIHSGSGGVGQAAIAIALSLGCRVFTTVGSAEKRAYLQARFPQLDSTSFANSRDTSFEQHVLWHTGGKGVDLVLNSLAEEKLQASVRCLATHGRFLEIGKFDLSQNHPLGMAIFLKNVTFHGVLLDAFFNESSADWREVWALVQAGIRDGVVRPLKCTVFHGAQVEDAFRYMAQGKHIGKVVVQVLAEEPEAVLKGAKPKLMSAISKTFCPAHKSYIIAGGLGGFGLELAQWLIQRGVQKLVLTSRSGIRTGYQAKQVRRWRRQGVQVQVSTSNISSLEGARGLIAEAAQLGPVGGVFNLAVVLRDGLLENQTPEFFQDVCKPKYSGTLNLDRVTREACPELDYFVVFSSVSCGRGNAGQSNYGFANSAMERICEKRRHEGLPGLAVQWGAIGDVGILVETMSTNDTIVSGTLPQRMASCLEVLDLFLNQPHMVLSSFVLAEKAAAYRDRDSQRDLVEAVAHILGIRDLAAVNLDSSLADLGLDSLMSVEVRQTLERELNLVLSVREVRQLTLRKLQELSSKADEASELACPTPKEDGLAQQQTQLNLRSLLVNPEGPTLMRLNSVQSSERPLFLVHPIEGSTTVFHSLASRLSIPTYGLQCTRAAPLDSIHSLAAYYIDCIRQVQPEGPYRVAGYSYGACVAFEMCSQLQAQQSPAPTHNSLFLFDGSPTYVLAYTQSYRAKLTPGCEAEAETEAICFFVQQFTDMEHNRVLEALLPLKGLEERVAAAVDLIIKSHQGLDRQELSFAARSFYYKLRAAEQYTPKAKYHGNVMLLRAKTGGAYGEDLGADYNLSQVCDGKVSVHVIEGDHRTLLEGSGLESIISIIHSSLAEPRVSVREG
Active and inactive are the calls of the source.

According to the records, this molecule CCc1nc2c(OCc3ccc(Cl)cc3Cl)cccn2c1N(C=O)Cc1ccc(OC)cc1 displays IC50 of 2.45 µM (active)

Just so you know, measured IC50 for Cc1ccc(C(=O)N/C(=C/c2ccc(-c3ccc([N+](=O)[O-])cc3)o2)C(=O)NCCCN(C)C)cc1 came out at 13.8 µM (active)

The measured IC50 associated with CCN(Cc1ccccc1)C(=O)c1cnc2ccc(S(=O)(=O)N(C)CCC#N)cc2c1O reads 12 µM (active)

Record Cc1ccc(C(=O)NCC(=O)OCc2nnc(-c3ccc([N+](=O)[O-])cc3)o2)s1 , field IC50: 15.1 µM (active)

Entry O=C(NCCCCc1ccccc1)c1cccc([N+](=O)[O-])c1 ; IC50 = 11.1 µM (active)

====

target: Replicative DNA helicase DnaB (Mycobacterium tuberculosis); test: DnaB intein splicing inhibitors, dose response, biochemical, cell-free fluorescence (AID 449749); type: functional
Active and inactive are the calls of the source.
Provide the reported AC50 of each item.

Looking up O=C(CCl)Nc1c(C(=O)Nc2ccc3c(c2)OCCO3)oc2ccccc12 , I see its AC50 listed as 7.89 µM (active)

Form field AC50, entry COc1ccc(-n2c3nc4ccccc4nc3c3c(=N)oc(C)nc32)cc1 : > 120 µM (inactive)

Value of AC50 reported for the compound CC1=NNC(=O)C1Cc1ccccc1 (stereo not given) is 0.651 µM (active)

The recorded AC50 for CC(=O)N(Cc1ccc(F)cc1)C1=C(NCCc2ccccc2)C(=O)c2ccccc2C1=O is 4.93 µM (active)

The compound identified as Cc1cc(C)c(C#N)c(SCc2n[nH]c3c2C(c2ccc(F)cc2)C(C#N)=C(N)O3)n1 (stereo not given) registered its AC50 at 6.74 µM (active)

The recorded AC50 for O=C(NC(=C(Cl)Cl)S(=O)(=O)c1ccc(Cl)cc1)c1ccccc1 is > 380 µM (inactive)

Briefly, AC50 measured for C=CCc1cccc(/C=N/c2cnc(O)nc2O)c1O : > 380 µM (inactive)

AC50 reported for this compound CCNC(=O)c1ccccc1-c1nc(-c2ccccc2)no1 : > 380 µM (inactive)

Reported AC50 ( Clc1ccc(CSC(Cn2ccnc2)c2ccc(Cl)cc2Cl)cc1 (stereo not given) [SULCONAZOLE NITRATE] ) = 3.52 µM (active)

The recorded AC50 for entry CCOc1cc(C(c2c(C)n[nH]c2O)c2c(C)n[nH]c2O)ccc1OS(=O)(=O)c1ccc(C)cc1 equals 0.413 µM (active)

====

Provide the reported EC50 of each item.
test: NIH3T3 cell viability loss – ATP luminescence, mouse fibroblasts, counter-screen, dose response (AID 2010); assay type: functional, cell-based;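 also: cells exposed to compound for about 90 hours before reading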
The source made the active and inactive calls.

Record CN(C)CCCN(C(=O)c1nc2ccccc2s1)c1nc2ccc(F)cc2s1 . Reported EC50: > 60 µM (not active)

EC50 measured on COc1ccc(-c2c[n+](-c3ccccc3)c3n2CCS3)cc1 = > 60 µM (not active)

Query COc1ccc2cc3cc(C(=O)Nc4ccccc4N4CCN(C)CC4)oc3nc2c1 yields EC50 of 4.47 µM (active)

For reference, reported EC50 for CCCCC(=O)NC(c1ccccc1)c1ccc2cccnc2c1O (configuration not stated) stands at 1.03 µM (active)

The reported EC50 of the molecule CC(C)Cc1ccc(CN2CCCC(NC(=O)CCn3cnnn3)C2)cc1 (configuration not stated) was > 30 µM (not active)

Recorded EC50 (molecule Cc1cc(C(=O)CN2CCC(C)CC2)c(C)n1-c1ccccc1F ): > 60 µM (not active)

Kindly note the recorded EC50 for O=C(c1nnsc1[S+]([O-])c1ccc(Cl)cc1)N1CCOCC1 (configuration not stated) , which is 2.13 µM (active)

Values were extracted from ChEMBL document CHEMBL1201862.
